Every entry's value here was drawn from patent EP1561465A2.

# System: Enterococcus faecalis
# run description: MIC by agar macrodilution (NCCLS), 373 Gram positive isolates, Athens 1998
# Format: cell-based
// reported MIC distribution (µg/ml) 0.06 per item

Some compounds with known MIC distribution (µg/ml) 0.06 results, for comparison:
CN[C@H](CC(C)C)C(=O)N[C@H]1C(=O)N[C@@H](CC(N)=O)C(=O)N[C@H]2C(=O)N[C@H]3C(=O)N[C@H](C(=O)N[C@H](C(=O)O)c4cc(O)cc(O)c4-c4cc3ccc4O)[C@H](O)c3ccc(c(Cl)c3)Oc3cc2cc(c3O[C@@H]2O[C@H](CO)[C@@H](O)[C@H](O)[C@H]2O[C@H]2C[C@](C)(N)[C@H](O)[C@H](C)O2)Oc2ccc(cc2Cl)[C@H]1O [Vancomycin] :: 0
N[C@@H]1[C@H]2CN(c3nc4c(cc3F)c(=O)c(C(=O)O)cn4-c3ccc(F)cc3F)C[C@@H]12 [Trovafloxacin, trovafloxacin] :: 1
CO/N=C1\CN(c2nc3c(cc2F)c(=O)c(C(=O)O)cn3C2CC2)CC1CN (racemic) [Gemifloxacin] :: 2

API: the following record is the query input.
// lookup MIC distribution (µg/ml) 0.06 for Cc1c(F)c(N2CCNC(C)C2)cc2c1c(=O)c(C(=O)O)cn2C1CC1 (stereo not shown) [Grepafloxacin, grepafloxacin]
0

----------
# System: Gram positive anaerobic and facultative anaerobic pathogens
# run description: microbe, parasite or virus in culture
# Format: cell-based
# stated conditions: Bifidobacterium breve, ATCC15700
// reported MIC per item
Numeric answer only, unit µg/mL assumed.

Some compounds with known MIC results, for comparison:
CO/N=C1\CN(c2nc3c(cc2F)c(=O)c(C(=O)O)cn3C2CC2)CC1CN (racemic) :: 1
N[C@@H]1[C@H]2CN(c3nc4c(cc3F)c(=O)c(C(=O)O)cn4-c3ccc(F)cc3F)C[C@@H]12 :: 4
C[C@@H]1CN(c2c(F)c(N)c3c(=O)c(C(=O)O)cn(C4CC4)c3c2F)C[C@H](C)N1 :: 2

API: the following record is the query input.
// lookup MIC for C[C@@H](O)[C@H]1C(=O)N2C(C(=O)O)=C(SCCN=CN)C[C@H]12
1

----------
# System: Streptococcus pneumoniae
# run description: MIC by two-fold serial agar dilution, Sensitivity Disk agar-N (Kitasato isolates)
# Format: cell-based
# stated conditions: Streptococcus pneumoniae, 18 h, Erythromycin-resistant (37); read-out: MIC Range
// reported MIC per item

Some compounds with known MIC results, for comparison:
NC1CCN(c2nc3c(cc2F)c(=O)c(C(=O)O)cn3-c2ccc(F)cc2F)C1 (stereo not shown) [Tosufloxacin, tosufloxacin] :: 0.063 to 4 µg/mL
CC1(C)S[C@@H]2[C@H](NC(=O)[C@H](N)c3ccc(O)cc3)C(=O)N2[C@H]1C(=O)O [Amoxycillin, amoxycillin] :: 0.016 to 8 µg/mL
CO/N=C(\C(=O)N[C@@H]1C(=O)N2C(C(=O)O)=C(/C=C\c3scnc3C)CS[C@H]12)c1csc(N)n1 [Cefditoren, cefditoren] :: 0.008 to 2 µg/mL
C[C@H]1COc2c(N3CCN(C)CC3)c(F)cc3c(=O)c(C(=O)O)cn1c23 [Levofloxacin, levofloxacin] :: 0.5 to 16 µg/mL
CO/N=C1\CN(c2nc3c(cc2F)c(=O)c(C(=O)O)cn3C2CC2)CC1CN (racemic) [Gemifloxacin] :: 0.016 to 0.5 µg/mL
O=C(O)c1cn(C2CC2)c2cc(N3CCNCC3)c(F)cc2c1=O [Ciprofloxacin, ciprofloxacin] :: 0.5 to 64 µg/mL

// lookup MIC for N[C@@H]1[C@H]2CN(c3nc4c(cc3F)c(=O)c(C(=O)O)cn4-c3ccc(F)cc3F)C[C@@H]12 [Trovafloxacin, trovafloxacin]
0.063 to 2 µg/mL
